# Experimental system: Orexin/Hypocretin receptor type 1 (Homo sapiens)
# Protocol summary: Antagonist activity at OX1 receptor (unknown origin) expressed in RD-HGA16 cells assessed as inhibition of orexin A-induced calcium mobilization by fluorometric imaging plate reader analysis
# Format: functional, cell-based
Observable: Ke (nM)

(a) CCCCCCOc1ccc(CC2c3cc(OC)c(OC)cc3CCN2CC(=O)NCc2ccccc2)cc1OC (centres undefined)
(b) COc1ccc(CC2c3cc(OC(=O)CCCCCCN(C)CCCCOCCCCOCCCCOCCNC(=O)c4nn(-c5ccc(Cl)cc5Cl)c(-c5ccc(Cl)cc5)c4C)c(OC)cc3CCN2CC(=O)NCc2ccccc2)cc1OC (centres undefined)
(c) CCCC(=O)Oc1cc2c(cc1OC)CCN(CC(=O)NCc1ccccc1)C2Cc1ccc(OC)c(OC)c1 (centres undefined)
Q: Please put the 3 molecules above in a list ordered by falling Ke. Put the labels in the order asked and list them.
A: b, a, c
(b: 3500 nM, a: 120 nM, c: 78 nM)

* * *

# Experimental system: Cannabinoid CB1 receptor/orexin receptor 1 complex (Homo sapiens) (UniProt P21554+O43613)
# Sequence (P21554 whole entry): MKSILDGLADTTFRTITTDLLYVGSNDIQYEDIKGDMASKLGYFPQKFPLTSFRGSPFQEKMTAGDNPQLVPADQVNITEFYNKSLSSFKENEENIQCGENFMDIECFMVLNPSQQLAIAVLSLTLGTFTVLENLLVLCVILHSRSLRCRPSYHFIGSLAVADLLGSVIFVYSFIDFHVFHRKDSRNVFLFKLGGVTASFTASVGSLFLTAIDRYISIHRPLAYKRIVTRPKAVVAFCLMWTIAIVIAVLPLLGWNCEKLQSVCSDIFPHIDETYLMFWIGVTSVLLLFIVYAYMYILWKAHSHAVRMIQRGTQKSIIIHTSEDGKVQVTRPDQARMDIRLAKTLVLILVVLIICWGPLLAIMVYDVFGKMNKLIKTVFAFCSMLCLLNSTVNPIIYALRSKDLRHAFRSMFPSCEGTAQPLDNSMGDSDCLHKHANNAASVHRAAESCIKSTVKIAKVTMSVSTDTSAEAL
# Condition: RD-HGA16
Ke reference

Sample answers from the record:
Molecule	Ke
COc1cc2c(cc1OC)C(Cc1ccc(OC(=O)CCCCCCN(C)CCCCCCCCCCCCNC(=O)c3nn(-c4ccc(Cl)cc4Cl)c(-c4ccc(Cl)cc4)c3C)c(OC)c1)N(CC(=O)NCc1ccccc1)CC2 (stereo not drawn)	> 10 µM
COc1ccc(CC2c3cc(OC(=O)CCCCCCN(C)CCCCOCCCCOCCCCOCCNC(=O)c4nn(-c5ccc(Cl)cc5Cl)c(-c5ccc(Cl)cc5)c4C)c(OC)cc3CCN2CC(=O)NCc2ccccc2)cc1OC (stereo not drawn)	4.5 µM

Continue with the next molecule.
Q: What measured Ke goes with COc1ccc(CC2c3cc(OC(=O)CCCCCCN(C)CCCCCCCNC(=O)c4nn(-c5ccc(Cl)cc5Cl)c(-c5ccc(Cl)cc5)c4C)c(OC)cc3CCN2CC(=O)NCc2ccccc2)cc1OC (stereo not drawn) ?
A: > 10 µM

* * *

# Experimental system: Orexin/Hypocretin receptor type 1 (Homo sapiens) (UniProt O43613)
# Protocol summary: Antagonist activity at OX1 receptor (unknown origin) expressed in RD-HGA16 cells assessed as inhibition of orexin A-induced calcium mobilization by fluorometric imaging plate reader analysis
# Type: functional, cell-based
Observable: Ke (nM)

(a) CCCCCCCNC(=O)[C@@H](c1ccccc1)N1CCc2cc(OC)c(OC)cc2C1Cc1ccc(OC)c(OC)c1 (some centres undefined)
(b) Cc1nc2ccc(NC(=O)Nc3ccnc4cccnc34)cc2o1
(c) COc1ccc(CC2c3cc(OC)c(OC)cc3CCN2C(C(=O)NCCCCCCCN(C)CCCCCCCNC(=O)c2nn(-c3ccc(Cl)cc3Cl)c(-c3ccc(Cl)cc3)c2C)c2ccccc2)cc1OC (centres undefined)
Q: Provide the items ranked by increasing Ke. # list labels per requested ordering
A: a, b, c

* * *

# Experimental system: UniProtKB P21554
# Condition: RD-HGA16
Observable: Ke (nM)

Sample records with Ke:
Compound	Ke (nM)
COc1ccc(CC2c3cc(OC(=O)CCCCCCN(C)CCCCOCCCCOCCCCOCCNC(=O)c4nn(-c5ccc(Cl)cc5Cl)c(-c5ccc(Cl)cc5)c4C)c(OC)cc3CCN2CC(=O)NCc2ccccc2)cc1OC (stereo not drawn)	1800
COc1ccc(CC2c3cc(OCCCCCCC(=O)NCCOCCOCCOCCNC(=O)c4nn(-c5ccc(Cl)cc5Cl)c(-c5ccc(Cl)cc5)c4C)c(OC)cc3CCN2CC(=O)NCc2ccccc2)cc1OC (stereo not drawn)	8000
COc1cc2c(cc1OC)C(Cc1ccc(OC(=O)CCCCCCN(C)CCCCCCCNC(=O)c3nn(-c4ccc(Cl)cc4Cl)c(-c4ccc(Cl)cc4)c3C)c(OC)c1)N(CC(=O)NCc1ccccc1)CC2 (stereo not drawn)	1800

(P) COc1ccc(CC2c3cc(OC(=O)CCCCCCN(C)CCCCCCCNC(=O)c4nn(-c5ccc(Cl)cc5Cl)c(-c5ccc(Cl)cc5)c4C)c(OC)cc3CCN2CC(=O)NCc2ccccc2)cc1OC (stereo not drawn)
(Q) COc1cc2c(cc1OC)C(Cc1ccc(OC(=O)CCCCCCN(C)CCCCCCCCCCCCNC(=O)c3nn(-c4ccc(Cl)cc4Cl)c(-c4ccc(Cl)cc4)c3C)c(OC)c1)N(CC(=O)NCc1ccccc1)CC2 (stereo not drawn)
Q: Just curious, which one has the larger Ke reading, P or Q ? # respond with the chosen item's label
A: P
(P: 2100 nM, Q: 1100 nM)

(P) COc1cc2c(cc1OC)C(Cc1ccc(OC(=O)CCCCCCN(C)CCCCCCCCCCNC(=O)c3nn(-c4ccc(Cl)cc4Cl)c(-c4ccc(Cl)cc4)c3C)c(OC)c1)N(CC(=O)NCc1ccccc1)CC2 (stereo not drawn)
(Q) COc1ccc(CC2c3cc(OC)c(OC)cc3CCN2C(C(=O)NCCCCCCCN(C)CCCCCCCNC(=O)c2nn(-c3ccc(Cl)cc3Cl)c(-c3ccc(Cl)cc3)c2C)c2ccccc2)cc1OC (stereo not drawn)
Q: Return label of the item with the larger Ke. Candidates: P , Q . Identify your pick by its label.
A: Q

* * *

# Experimental system: Cannabinoid CB1 receptor/orexin receptor 1 complex (Homo sapiens) (UniProt P21554+O43613)
# Condition: RD-HGA16
Observable: Ke (nM)

Example entries begin here.
Compound	Unit descriptor	Ke
COc1ccc(CC2c3cc(OC(=O)CCCCCCN(C)CCCCOCCCCOCCCCOCCNC(=O)c4nn(-c5ccc(Cl)cc5Cl)c(-c5ccc(Cl)cc5)c4C)c(OC)cc3CCN2CC(=O)NCc2ccccc2)cc1OC (stereo not drawn)	nM	420
COc1cc2c(cc1OC)C(Cc1ccc(OC(=O)CCCCCCN(C)CCCCCCCCCCNC(=O)c3nn(-c4ccc(Cl)cc4Cl)c(-c4ccc(Cl)cc4)c3C)c(OC)c1)N(CC(=O)NCc1ccccc1)CC2 (stereo not drawn)	nM	110
COc1cc2c(cc1OC)C(Cc1ccc(OC(=O)CCCCCCN(C)CCCCCCCCCCCCNC(=O)c3nn(-c4ccc(Cl)cc4Cl)c(-c4ccc(Cl)cc4)c3C)c(OC)c1)N(CC(=O)NCc1ccccc1)CC2 (stereo not drawn)	nM	410
COc1cc2c(cc1OC)C(Cc1ccc(OC(=O)CCCCCCN(C)CCCCCCCNC(=O)c3nn(-c4ccc(Cl)cc4Cl)c(-c4ccc(Cl)cc4)c3C)c(OC)c1)N(CC(=O)NCc1ccccc1)CC2 (stereo not drawn)	nM	610

(P) COc1ccc(CC2c3cc(OCCCCCCC(=O)NCCOCCOCCOCCNC(=O)c4nn(-c5ccc(Cl)cc5Cl)c(-c5ccc(Cl)cc5)c4C)c(OC)cc3CCN2CC(=O)NCc2ccccc2)cc1OC (stereo not drawn)
(Q) COc1ccc(CC2c3cc(OC(=O)CCCCCCN(C)CCCCCCCNC(=O)c4nn(-c5ccc(Cl)cc5Cl)c(-c5ccc(Cl)cc5)c4C)c(OC)cc3CCN2CC(=O)NCc2ccccc2)cc1OC (stereo not drawn)
(R) COc1ccc(CC2c3cc(OC)c(OC)cc3CCN2C(C(=O)NCCCCCCCN(C)CCCCCCCNC(=O)c2nn(-c3ccc(Cl)cc3Cl)c(-c3ccc(Cl)cc3)c2C)c2ccccc2)cc1OC (stereo not drawn)
Q: Ranking field: Ke; order: falling. List labels; respect the requested ordering.
A: Q, P, R
(Q: 1200 nM, P: 580 nM, R: 230 nM)

* * *

# Experimental system: Orexin/Hypocretin receptor type 1 (Homo sapiens) (UniProt O43613)
# Sequence (whole entry): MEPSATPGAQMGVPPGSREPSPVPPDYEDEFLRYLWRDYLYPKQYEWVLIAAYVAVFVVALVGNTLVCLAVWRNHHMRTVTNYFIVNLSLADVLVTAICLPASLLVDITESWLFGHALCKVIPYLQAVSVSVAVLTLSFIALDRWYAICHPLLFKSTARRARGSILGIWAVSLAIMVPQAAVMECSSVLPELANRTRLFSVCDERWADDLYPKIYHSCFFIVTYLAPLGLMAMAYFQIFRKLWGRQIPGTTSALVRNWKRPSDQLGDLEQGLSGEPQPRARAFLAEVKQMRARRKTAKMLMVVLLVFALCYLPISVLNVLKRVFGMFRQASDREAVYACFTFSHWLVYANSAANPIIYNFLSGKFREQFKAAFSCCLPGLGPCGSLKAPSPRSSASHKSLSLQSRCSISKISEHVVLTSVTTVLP
# Protocol summary: Antagonist activity at OX1 receptor (unknown origin) expressed in RD-HGA16 cells assessed as inhibition of orexin A-induced calcium mobilization by fluorometric imaging plate reader analysis
# Assay type: functional, cell-based
Observable: Ke (nM)

Compound	Experimental system	Unit descriptor	Ke
COc1cc2c(cc1OC)C(Cc1ccc(OC(=O)CCCCCCN(C)CCCCCCCNC(=O)c3nn(-c4ccc(Cl)cc4Cl)c(-c4ccc(Cl)cc4)c3C)c(OC)c1)N(CC(=O)NCc1ccccc1)CC2 (configuration not stated)	Orexin/Hypocretin receptor type 1 (Homo sapiens) (UniProt O43613)	nM	8460
CCCC(=O)Oc1ccc(CC2c3cc(OC)c(OC)cc3CCN2CC(=O)NCc2ccccc2)cc1OC (configuration not stated)	Orexin/Hypocretin receptor type 1 (Homo sapiens) (UniProt O43613)	nM	43
CCCCCCOc1cc2c(cc1OC)CCN(CC(=O)NCc1ccccc1)C2Cc1ccc(OC)c(OC)c1 (configuration not stated)	Orexin/Hypocretin receptor type 1 (Homo sapiens) (UniProt O43613)	nM	310
COc1ccc(CC2c3cc(OCCCCCCC(=O)NCCOCCOCCOCCNC(=O)c4nn(-c5ccc(Cl)cc5Cl)c(-c5ccc(Cl)cc5)c4C)c(OC)cc3CCN2CC(=O)NCc2ccccc2)cc1OC (configuration not stated)	Orexin/Hypocretin receptor type 1 (Homo sapiens) (UniProt O43613)	nM	8600

(1) CCCCCCCNC(=O)CN1CCc2cc(OC)c(OC)cc2C1Cc1ccc(OC)c(OC)c1 (configuration not stated)
(2) COc1ccc(CC2c3cc(OC)c(OC)cc3CCN2CC(=O)NCc2ccccc2)cc1OC (configuration not stated)
Q: Kindly identify the item with the lower Ke figure among these two: 1 and 2 Please reply using the label of the selected record.
A: 2
(2: 200 nM, 1: 590 nM)
